For each record, write down the corresponding TGI.
Tested on: SK-MEL-2 melanoma
Assay: NCI tumour cell line growth inhibition, 48 h
Peptide text beside a SMILES is read from it. * marks the point of attachment. X34 = O=C(c1ccc(-c2ccc(Cl)cc2Cl)o1)*

Q: Let me know recorded TGI for `Brc1ccc(C=NC23CC4CC(CC(C4)C2)C3)cc1` , thanks.
Ans: > 100 µM

Q: Let me know recorded TGI for `CCOC(=O)Nc1ccc2c(c1)C(=O)N(CC)c1ccccc1O2` , thanks.
Ans: > 100 µM

Q: Let me know recorded TGI for `CCOC(=O)[C@@]1(C(C)=O)CC(C)=C(C)C[S@]1=O` , thanks.
Ans: > 100 µM

Q: Let me know recorded TGI for `CCCCc1n(Cc2ccc3ccccc3n2)cc[n+]1Cc1ccc2ccccc2n1` , thanks.
Ans: 5.58 µM

Q: Let me know recorded TGI for `COc1ccc(CNCCCN2C(=O)c3ccc4c5c(ccc(c35)C2=O)C(=O)N(CCCNCc2ccc(OC)c(OC)c2OC)C4=O)c(OC)c1OC` , thanks.
Ans: 0.191 µM

Q: Let me know recorded TGI for `O=C(Nc1ccccc1Cl)c1ccc(NC2=C(Cl)C(=O)N(C3CCCCC3)C2=O)cc1` , thanks.
Ans: 44.1 µM

Q: Let me know recorded TGI for `O=c1[nH]nc(CNc2ccc(Cl)cc2Cl)c2ccccc12` , thanks.
Ans: > 100 µM

Q: Let me know recorded TGI for O=[N+]([O-])c1cccc(C2=NN(c3ccccc3)C3c4ccccc4OCC23)c1 (stereo not given) , thanks.
Ans: > 100 µM

Q: Let me know recorded TGI for `Cc1cccc(N=Cc2ccc(N(CCC#N)S(=O)(=O)c3ccccc3)cc2C)c1` , thanks.
Ans: > 100 µM

Q: Let me know recorded TGI for `CC(C)CNCCc1ccccn1` , thanks.
Ans: > 100 µM

Q: Let me know recorded TGI for `Cc1ccc2nc(CN(CCO)CCO)cc(=O)n2c1` , thanks.
Ans: > 100 µM

Q: Let me know recorded TGI for `CN=C1CN=C(OP(=O)(N2CCOCC2)N2CCOCC2)c2cc(Cl)ccc2N1` , thanks.
Ans: > 100 µM

Q: Let me know recorded TGI for CC(ON1[C@](C)(c2ccccc2)CC[C@@]1(C)c1ccccc1)c1ccccc1 (stereo not given in full) , thanks.
Ans: 50.5 µM

Q: Let me know recorded TGI for `C/C(CC(C)(C)N1CC1)=N\NC(=O)Nc1cccc2ccccc12` , thanks.
Ans: 5.45 µM

Q: Let me know recorded TGI for CCOC(=O)/C(=C\c1cn(C(C)=O)c2ccccc12)P(C)(=O)OCC (stereo not given) , thanks.
Ans: > 100 µM

Q: Let me know recorded TGI for `c1cc(C2=NCCO2)c2ccsc2c1` , thanks.
Ans: > 100 µM

Q: Let me know recorded TGI for `CCCCC(=O)c1c(O)ccc2c(C)cc(=O)oc12` , thanks.
Ans: > 100 µM

Q: Let me know recorded TGI for CCN(CCO)CCCC(C)Nc1ccnc2cc(Cl)ccc12 (stereo not given) , thanks.
Ans: > 100 µM

Q: Let me know recorded TGI for O=S(=O)(O)n1ccnc1 (tested in a mixture with another compound) , thanks.
Ans: > 100 µM

Q: Let me know recorded TGI for `CC(C)C1=CC2=CC[C@@H]3[C@](C)(CCC[C@@]3(C)C(=O)O)[C@H]2CC1` , thanks.
Ans: > 78.9 µM

Q: Let me know recorded TGI for COc1ccc2nc3c(cc2c1)C(=O)CC(c1ccccc1)C3 (stereo not given) , thanks.
Ans: > 100 µM

Q: Let me know recorded TGI for `CC1=C(SCCO)C(=O)c2ccccc2C1=O` , thanks.
Ans: 24.5 µM

Q: Let me know recorded TGI for `O=C1NC(=NCc2ccc(F)cc2)N/C1=C\c1ccccc1Cl` , thanks.
Ans: 33.3 µM

Q: Let me know recorded TGI for `Fc1ccc(-c2ncn(CCCN3CCOCC3)c2-c2ccncc2)cc1` , thanks.
Ans: > 25 µM

Q: Let me know recorded TGI for COC(=O)C(CC(C)C)NC(=O)C(Cc1ccccc1)NC(=O)C1CCCN1C(=O)C(CO)NC(=O)c1ccc(-c2ccc(Cl)cc2Cl)o1 (stereo not given) (X34-SPFL-OMe; configuration not given here) , thanks.
Ans: 33.7 µM

Q: Let me know recorded TGI for `Cc1c[nH]c(=O)n(Cc2nnc(CCC(=O)c3nc4ccccc4[nH]3)o2)c1=O` , thanks.
Ans: > 23.9 µM

Q: Let me know recorded TGI for `CC(C)=Cc1cccc2[nH]c(O)c(N=Nc3ccc(S(N)(=O)=O)cc3)c12` , thanks.
Ans: > 25 µM

Q: Let me know recorded TGI for COc1ccc(C2CC(c3ccc(OC)cc3O)=NN2c2ccc(S(N)(=O)=O)cc2)cc1 (stereo not given) , thanks.
Ans: 85.9 µM

Q: Let me know recorded TGI for `COC(=O)C1=C(C(=O)ON)[C@@H]2C=C[C@@]1([C@@H](Cc1ccccc1)Nc1ccccc1)O2` , thanks.
Ans: 30 µM

Q: Let me know recorded TGI for CC[C@]1(Cc2ccc(OC)c(OC)c2)C2CC(C(=O)OC)ON2O[C@H](OCc2ccccc2)[C@@H]1OC(C)=O (stereo not given in full) , thanks.
Ans: > 100 µM
